Assay: Bidirectional permeability assay (Caco-2 cells)
Assay type: in vitro ADME
Conditions: human, Caco-2, pH 7.4; secretory direction (B2A); FaSSIF donor buffer; 120 minutes at 37° C.
READOUT_TYPE: Papp B→A at 120 min, 10 µM (×10⁻⁶ cm/s)

CCCCC1CN(c2ccccc2)c2cc(SCC)c(O/C=C(\F)C(=O)O)cc2S(=O)(=O)C1 (single isomer, unassigned) [Example 15] :: 5.3
CCCCC1CN(c2ccccc2)c2cc(SCC)c(O/C=C(\F)C(=O)O)cc2S(=O)(=O)N1C (single isomer, unassigned) :: 3.9
CCCCC1CN(c2ccc(F)cc2)c2cc(SC)c(O/C=C(\F)C(=O)O)cc2S(=O)(=O)C1 (racemic) :: 8.5
CCCCC1CN(c2ccc(F)cc2)c2cc(SCC)c(O/C=C(\F)C(=O)O)cc2S(=O)(=O)C1 (racemic) [Example 16] :: 3.6

(I) CCCCC1CN(c2ccc(F)cc2)c2cc(SC)c(O/C=C(\F)C(=O)O)cc2S(=O)(=O)N1C (single isomer, unassigned) [Example 20]
(II) CCCCC1CN(c2ccc(F)cc2)c2cc(SCC)c(O/C=C(\F)C(=O)O)cc2S(=O)(=O)C1 (single isomer, unassigned) [Example 18]
Between the two listed entries I and II , which has its Papp B→A at 120 min, 10 µM at the higher number? Pick one; state its label. I
(I: 10.5 ×10⁻⁶ cm/s, II: 3.1 ×10⁻⁶ cm/s)

----------
Molecular target: human IBAT (Homo sapiens)
Construct: kept under Puromycin selection
Experiment: IBAT (h/m) assay: 3H-taurocholic acid uptake in human IBAT-overexpressing cells
Conditions: 0.25 μM 3H-taurocholic acid and 5 μM cold taurocholic acid, 20 minutes, highest test concentration 10 μM, read-out: hIBAT IC50
pIC50: −log10 of the molar value.
READOUT_TYPE: pIC50

CCCCC1CN(c2ccc(F)cc2)c2cc(SC)c(O/C=C/C(=O)O)cc2S(=O)(=O)N1 (racemic) [Example 1] :: 5.78
CCCCC1CN(c2ccc(F)cc2)c2cc(SCC)c(O/C=C(\F)C(=O)O)cc2S(=O)(=O)C1 (single isomer, unassigned) [Example 18] :: 6.19
CCCCC1CN(c2ccccc2)c2cc(SCC)c(O/C=C/C(=O)O)cc2S(=O)(=O)N1 (single isomer, unassigned) [Example 5] :: 5.06
CCCCC1CN(c2ccc(F)cc2)c2cc(SC)c(O/C=C(\F)C(=O)O)cc2S(=O)(=O)N1 (racemic) :: 6.32

(1) CCCCC1CN(c2ccc(F)cc2)c2cc(SC)c(O/C=C(\F)C(=O)O)cc2S(=O)(=O)C1 (single isomer, unassigned) [Example 11]
(2) CCCCC1CN(c2ccc(F)cc2)c2cc(SC)c(O/C=C(\F)C(=O)O)cc2S(=O)(=O)N1C (single isomer, unassigned) [Example 20]
(3) CCCCC1CN(c2ccc(F)cc2)c2cc(SC)c(O/C=C(\F)C(=O)O)cc2S(=O)(=O)C1 (racemic) [Example 10]
(4) CCCCC1CN(c2ccc(F)cc2)c2cc(SC)c(O/C=C(\F)C(=O)O)cc2S(=O)(=O)N1C (racemic) [Example 19]
(5) CCCCC1CN(c2ccc(F)cc2)c2cc(SCC)c(O/C=C(\F)C(=O)O)cc2S(=O)(=O)C1 (racemic) [Example 16]
Endpoint returns the given molecules ordered by ascending pIC50. Show the ranking through the labels, in the order asked for. 5, 3, 1, 4, 2

----------
Target: human LBAT (Homo sapiens)
Construct: kept under Geneticin selection
Sequence (Q14973 whole entry): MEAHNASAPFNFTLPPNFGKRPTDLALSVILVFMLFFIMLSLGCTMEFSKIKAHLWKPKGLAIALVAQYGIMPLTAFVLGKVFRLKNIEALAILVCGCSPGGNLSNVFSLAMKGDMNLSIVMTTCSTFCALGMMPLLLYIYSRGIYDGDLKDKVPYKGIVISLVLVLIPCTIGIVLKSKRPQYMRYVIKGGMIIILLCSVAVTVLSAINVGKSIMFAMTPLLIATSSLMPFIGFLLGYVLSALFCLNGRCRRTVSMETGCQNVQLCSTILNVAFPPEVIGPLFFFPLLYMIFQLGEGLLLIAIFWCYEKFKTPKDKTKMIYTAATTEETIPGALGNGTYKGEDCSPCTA
Experiment: LBAT (h/m) assay: 3H-taurocholic acid uptake in human LBAT-overexpressing cells
Conditions: 0.3 μM 3H-taurocholic acid and 7.5 μM cold taurocholic acid, 20 minutes, read-out: hLBAT IC50
READOUT_TYPE: IC50 (nM)

Field: example entries. Status: answers known.
CCCCC1CN(c2ccc(F)cc2)c2cc(SC)c(O/C=C(\F)C(=O)O)cc2S(=O)(=O)C1 (single isomer, unassigned) [Example 11] :: 0.9
CCCCC1CN(c2ccccc2)c2cc(SCC)c(O/C=C/C(=O)O)cc2S(=O)(=O)N1 (racemic) [Example 4] :: 3.4
CCCCC1CN(c2ccccc2)c2cc(SCC)c(O/C=C/C(=O)O)cc2S(=O)(=O)N1 (single isomer, unassigned) [Example 6] :: 129
CCCCC1CN(c2ccc(F)cc2)c2cc(SCC)c(O/C=C/C(=O)O)cc2S(=O)(=O)N1 (racemic) :: 2.6
CCCCC1CN(c2ccc(F)cc2)c2cc(SCC)c(O/C=C(\F)C(=O)O)cc2S(=O)(=O)C1 (single isomer, unassigned) [Example 18] :: 2.6
CCCCC1CN(c2ccc(F)cc2)c2cc(SC)c(O/C=C(\F)C(=O)O)cc2S(=O)(=O)C1 (racemic) [Example 10] :: 1.6
CCCCC1CN(c2ccc(F)cc2)c2cc(SC)c(O/C=C/C(=O)O)cc2S(=O)(=O)N1 (racemic) [Example 1] :: 1
CCCCC1CN(c2ccc(F)cc2)c2cc(SC)c(O/C=C/C(=O)O)cc2S(=O)(=O)N1 (single isomer, unassigned) [Example 3] :: 1.6

(I) CCCCC1CN(c2ccccc2)c2cc(SCC)c(O/C=C/C(=O)O)cc2S(=O)(=O)N1 (single isomer, unassigned) [Example 5]
(II) CCCCC1CN(c2ccc(F)cc2)c2cc(SCC)c(O/C=C/C(=O)O)cc2S(=O)(=O)C1 (single isomer, unassigned) [Example 9]
Could you tell me which of I and II has the lower IC50 reading? Please respond with the label that marks your chosen entry. II
(II: 2 nM, I: 3.4 nM)

(A) CCCCC1CN(c2ccc(F)cc2)c2cc(SCC)c(O/C=C(\F)C(=O)O)cc2S(=O)(=O)C1 (racemic) [Example 16]
(B) CCCCC1CN(c2ccc(F)cc2)c2cc(SC)c(O/C=C(\F)C(=O)O)cc2S(=O)(=O)N1C (single isomer, unassigned) [Example 20]
Of A and B , whose reported IC50 is the larger number? Returns: label corresponding to the selected item. A

----------
Target: human IBAT (Homo sapiens, UniProt Q12908)
Construct: kept under Puromycin selection
Sequence (Q12908 whole entry): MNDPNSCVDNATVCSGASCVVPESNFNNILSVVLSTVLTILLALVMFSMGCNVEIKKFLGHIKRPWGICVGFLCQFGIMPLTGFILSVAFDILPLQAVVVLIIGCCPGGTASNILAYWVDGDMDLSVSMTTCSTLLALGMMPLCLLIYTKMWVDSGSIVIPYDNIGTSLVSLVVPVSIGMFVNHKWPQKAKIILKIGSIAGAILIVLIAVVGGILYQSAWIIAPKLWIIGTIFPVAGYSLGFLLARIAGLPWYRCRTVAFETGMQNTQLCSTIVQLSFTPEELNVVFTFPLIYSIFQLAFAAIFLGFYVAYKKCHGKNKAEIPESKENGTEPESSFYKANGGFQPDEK
Assay: IBAT (h/m) assay: 3H-taurocholic acid uptake in human IBAT-overexpressing cells
Settings: 0.25 μM 3H-taurocholic acid and 5 μM cold taurocholic acid, 20 minutes, highest test concentration 10 μM, read-out: hIBAT IC50
READOUT_TYPE: IC50 (µM)

Example entries begin here.
CCCCC1CN(c2ccc(F)cc2)c2cc(SC)c(O/C=C(\F)C(=O)O)cc2S(=O)(=O)C1 (single isomer, unassigned) [Example 12] :: 1.42
CCCCC1CN(c2ccccc2)c2cc(SCC)c(O/C=C(\F)C(=O)O)cc2S(=O)(=O)N1C (single isomer, unassigned) [Example 26] :: 1.13
CCCCC1CN(c2ccc(F)cc2)c2cc(SCC)c(O/C=C/C(=O)O)cc2S(=O)(=O)N1 (racemic) :: 4.1

(I) CCCCC1CN(c2ccccc2)c2cc(SCC)c(O/C=C(\F)C(=O)O)cc2S(=O)(=O)N1C (single isomer, unassigned) [Example 25]
(II) CCCCC1CN(c2ccc(F)cc2)c2cc(SC)c(O/C=C/C(=O)O)cc2S(=O)(=O)N1 (single isomer, unassigned) [Example 3]
Could you tell me which of these two has the smaller IC50 figure? First: I Second: II Lab note: record the label of whichever item you select. I

(A) CCCCC1CN(c2ccccc2)c2cc(SCC)c(O/C=C(\F)C(=O)O)cc2S(=O)(=O)C1 (racemic) [Example 13]
(B) CCCCC1CN(c2ccccc2)c2cc(SCC)c(O/C=C(\F)C(=O)O)cc2S(=O)(=O)N1C (racemic) [Example 24]
Could you kindly indicate whether A or B has the higher IC50 value? // caller expects the label of the chosen entry A

----------
Experiment: Bidirectional permeability assay (Caco-2 cells)
Format: in vitro ADME
Conditions: human, Caco-2, pH 7.4; secretory direction (B2A); FaSSIF donor buffer; 120 minutes at 37° C.
From the text: Bidirectional Permeability Assay (Caco-2 Cells) HepaRG-Based Assay Protocol
READOUT_TYPE: Papp B→A at 120 min, 10 µM (×10⁻⁶ cm/s)

Solved cases (5 shown):
CCCCC1CN(c2ccccc2)c2cc(SCC)c(O/C=C(\F)C(=O)O)cc2S(=O)(=O)C1 (racemic) [Example 13] :: 6.9
CCCCC1CN(c2ccc(F)cc2)c2cc(SC)c(O/C=C/C(=O)O)cc2S(=O)(=O)N1 (racemic) [Example 1] :: 17.2
CCCCC1CN(c2ccc(F)cc2)c2cc(SC)c(O/C=C(\F)C(=O)O)cc2S(=O)(=O)N1C (racemic) [Example 19] :: 6.1
CCCCC1CN(c2ccc(F)cc2)c2cc(SC)c(O/C=C/C(=O)O)cc2S(=O)(=O)N1 (single isomer, unassigned) [Example 3] :: 17.1
CCCCC1CN(c2ccc(F)cc2)c2cc(SCC)c(O/C=C/C(=O)O)cc2S(=O)(=O)N1 (racemic) :: 8.7

(I) CCCCC1CN(c2ccc(F)cc2)c2cc(SCC)c(O/C=C/C(=O)O)cc2S(=O)(=O)C1 (racemic) [Example 7]
(II) CCCCC1CN(c2ccc(F)cc2)c2cc(SCC)c(O/C=C/C(=O)O)cc2S(=O)(=O)C1 (single isomer, unassigned) [Example 9]
Return label of the item with the larger Papp B→A at 120 min, 10 µM. Candidates: I , II . Answer by stating the label of the chosen item. II
(II: 18.6 ×10⁻⁶ cm/s, I: 8.9 ×10⁻⁶ cm/s)
